Tested on: DU-145 prostate
test_description: NCI tumour cell line growth inhibition, 48 h
Each entry below lists one item and its recorded TGI value.

compound: CC(Br)C(=O)NC(CO)C(=O)O (configuration not stated)
TGI: > 100 µM
//
compound: O=C(/C=C/C12c3ccccc3C(c3ccccc31)C1C(=O)NC(=O)C12)c1ccccn1 (configuration not stated)
TGI: 2.21 µM
//
compound: CCOC(=O)c1csc(NC(=O)C(C)N2CCCC2)n1 (configuration not stated)
TGI: > 100 µM
//
compound: CCOC(=O)/C=C/c1nc(C#N)c(N)o1
TGI: > 100 µM
//
compound: N#CC1(c2ccc(NC(=O)c3cccnc3NCc3ccncc3)cc2)CCCC1
TGI: > 100 µM
//
compound: O=C(CCc1cc(O)cc(O)c1)NCCc1cc(OCc2ccccc2)cc(OCc2ccccc2)c1
TGI: 33.5 µM
//
compound: O=C(O)c1nc2ccc(C(F)(F)F)cc2[nH]c1=O
TGI: > 100 µM

====

Tested on: MALME-3M melanoma
test_description: NCI tumour cell line growth inhibition, 48 h; in the data active = GI50 below about 0.43 µM; inactive = the rest
Classes used: active, inactive

compound: Cn1c([N+](=O)[O-])cnc1C=C1C(=O)c2ccccc2C1=O
label_value: inactive
//
compound: O=C1NN(C2=NNC3(C(=O)N2)c2ccccc2-c2ccccc23)C(c2ccccc2)=N/C1=C/c1ccc(Cl)cc1
label_value: inactive
//
compound: CCCCCCCCCCCCCCCCCCOc1ccccc1CC(=O)NCC[N+]1(C)CCOCC1
label_value: inactive
//
compound: CN(C)CCCC1(c2ccc(F)cc2)OCc2cc(-c3cccc4[nH]ccc34)ccc21 (stereo not given)
label_value: inactive
//
compound: Cc1c2ccnc(C(N)=O)c2c(C)c2c1[nH]c1ccccc12
label_value: inactive
//
compound: N#Cc1nc2c(S(=O)(=O)c3ccc(Cl)cc3)c(N)n(Nc3cccc(Cl)c3)c2nc1C#N
label_value: active
//
compound: O=C1c2cccc(Oc3ccccc3)c2C(=O)c2cccc(Oc3ccccc3)c21
label_value: inactive
//
compound: CCN(CC)CCCNc1ccc(C)c2sc3ccccc3c(=O)c12
label_value: active
//
compound: N#CC(C(=O)C(=O)Nc1c(Cl)cccc1Cl)c1ccccc1 (stereo not given)
label_value: inactive
//
compound: COc1ccc(C(=O)c2cc(OC)c(OC)c(OC)c2OC)cc1O
label_value: inactive

====

Test system: COLO 205 colon
test_description: NCI tumour cell line growth inhibition, 48 h; in the data active means GI50 below about 0.43 µM; inactive means the rest
Classes used: active, inactive

molecule: O=C1NN(C2=NNC3(C(=O)N2)c2ccccc2-c2ccccc23)C(c2ccccc2)=N/C1=C/c1ccc(Cl)cc1
label_value: inactive

molecule: CNCc1cccc2c1OCCOCCOCCN(C)S(=O)(=O)c1ccc(cc1)-c1cnc(N)c(n1)C(=O)N2
label_value: inactive

molecule: COc1ccc2c(c1)c(-c1nc(-c3c[nH]c4ncccc34)cs1)cn2CCCN1CCOCC1
label_value: inactive

molecule: Cn1nccc1Nc1nccc(-c2ccn([C@H](CO)c3ccc(Cl)c(F)c3)c(=O)c2)n1
label_value: active

molecule: C[C@]12CC[C@H]3[C@@H](CCC4=CC(=O)CC[C@@]43C)[C@@H]1CC[C@@H]2c1csc(N)n1
label_value: inactive

molecule: CCN(CC)Cc1cc(Nc2nc(NC3CCC(N(C)C)CC3)c3ccccc3n2)ccc1OC (stereo unspecified)
label_value: inactive

molecule: CNC(=O)c1ncccc1Nc1nc(Nc2cc3c(cc2OC)CCCN3C(=O)CN(C)C)nc2[nH]ccc12
label_value: active

molecule: CCNc1nc(O)c(/C=C2\C=Nc3ncccc32)s1
label_value: inactive

molecule: O=C1/C(=C/c2ccc(Cl)c(Cl)c2)CN(C(=O)CCN2CCC(=NO)CC2)C/C1=C\c1ccc(Cl)c(Cl)c1
label_value: active

molecule: Cc1cccc(NC(=O)c2sc3nc4c(cc3c2N)C(=O)CCC4)c1
label_value: active

molecule: CCn1cc(C(=O)O)c(=O)c2cc(F)c(N3CCN(S(=O)(=O)c4cccc5ccccc45)CC3)cc21
label_value: inactive

molecule: CC(=O)ON1CCCC(P(=O)(OCOC(=O)C(C)(C)C)OCOC(=O)C(C)(C)C)C1=O (stereo unspecified)
label_value: inactive

molecule: CCN=c1sc2c(n1NC(=O)c1cc3ccc1CCc1ccc(cc1)CC3)C(=O)c1ccccc1C2=O
label_value: inactive

molecule: CC(C)(CO)CNC(=O)c1ccc2[nH]c(O)c(N=Nc3ccc(S(N)(=O)=O)cc3)c2c1
label_value: inactive

molecule: Nc1nc2c(c3cnccc13)C(c1ccc(Cl)c(Cl)c1)Cc1cnccc1-2 (stereo unspecified)
label_value: active

molecule: CSC1=Nc2c(c(C)c(C)n2COC(CO)CO)C2=NC(=O)CN12
label_value: inactive
